Target Or System: KRAS-G12V (Homo sapiens, UniProt P01116, G12V)
Sequence (P01116 with tags, fused parts or gaps isoform P01116-2 G12V): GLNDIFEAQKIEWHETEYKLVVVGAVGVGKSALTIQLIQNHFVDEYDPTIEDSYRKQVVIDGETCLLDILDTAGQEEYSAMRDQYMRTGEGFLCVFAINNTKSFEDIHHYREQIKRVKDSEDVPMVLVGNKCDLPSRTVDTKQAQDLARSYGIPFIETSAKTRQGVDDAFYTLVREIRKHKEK
Assay Remarks: SOS-catalyzed nucleotide exchange assay (Procedure A, TR-FRET), KRAS-G12V
Type: biochemical
Experimental Setup: nucleotide exchange, read-out: KRAS G12V GNE IC50
Give pIC50 for every item shown.
Schema: pIC50 number; meaning minus log10 of the concentration expressed in molar units.

Complete the entry with pIC50 for CN1CCC[C@@]2(COc3nc(N4CCOC[C@@](C)(O)C4)c4c(n3)sc3c(-c5c(C6CC6)c(C(F)(F)F)cc6[nH]ncc56)nccc34)CCC[C@@H]12
8.35

Quick one: give measured pIC50 for C=C1CCCc2cc3[nH]ncc3c(-c3nccc4c3sc3nc(OC[C@@]56CCCN5C[C@H](F)C6)nc(N5CCOC[C@@](C)(O)C5)c34)c21
7.88

Using known records, supply pIC50 for C[C@@]1(O)COCCN(c2nc(OC[C@]3(CN4CC(C#N)C4)CC3(F)F)nc3sc4c(-c5c(C6(F)CC6)c(Cl)cc6[nH]ncc56)nccc4c23)C1
6.40

Return the recorded pIC50 value; entry: Cc1cc2[nH]ncc2c(-c2nccc3c4c(N5CCOCC(O)C5)nc(OC[C@@]56CCCN5C[C@H](F)C6)nc4n(C)c23)c1C(F)(F)F (single isomer, unassigned)
6.18

Fill in pIC50 for record CCc1c(C)cc2[nH]ncc2c1-c1nccc2c1sc1nc(OC[C@@]34CCCN3C[C@H](F)C4)nc(N3CCOC[C@@](C)(O)C3)c12
6.27

Specify pIC50 for CN1CCC[C@H]1COc1nc(N2CCOC[C@@](C)(O)C2)c2c(n1)sc1c(-c3c(C4CC4)c(C(F)(F)F)cc4[nH]ncc34)nccc12 and stop.
7.96

Indicate its recorded pIC50; the compound in question is C[C@@]1(O)COCCN(c2nc(OC[C@@]34CCCN3C[C@H](F)C4)nc3c(Cl)c4c(-c5c(C6CC6)c(Cl)cc6[nH]ncc56)nccn4c23)C1 (single isomer, unassigned)
8.07

# return recorded pIC50 for entry C[C@@]1(O)COCCN(c2nc(OC[C@]3(CN4[C@@H]5CC[C@H]4C[C@@H](F)C5)CC3(F)F)nc3sc4c(-c5c(C6(F)CC6)c(Cl)cc6[nH]ncc56)nccc4c23)C1
6.46

Identify measured pIC50 corresponding to CCc1c(F)ccc2cc3[nH]ncc3c(-c3nccc4c3sc3nc(OC[C@@]56CCCN5C[C@H](F)C6)nc(N5CCOC[C@@](C)(O)C5)c34)c12
8.32

Return the recorded pIC50 value; entry: C#C[C@@H]1CCCc2cc3[nH]ncc3c(-c3nccc4c3sc3nc(OC[C@@]56CCCN5C[C@H](F)C6)nc(N5CCOC[C@@](C)(O)C5)c34)c21
7.18

Indicate the recorded pIC50 value for this compound: C/C=C1\CCCc2cc3[nH]ncc3c(-c3nccc4c3sc3nc(OC[C@@]56CCCN5C[C@H](F)C6)nc(N5CCOC[C@@](C)(O)C5)c34)c21
7.58

###

Target Or System: KRAS-G12D (Homo sapiens, UniProt P01116, G12D)
Sequence (P01116 with tags, fused parts or gaps isoform P01116-2 G12D): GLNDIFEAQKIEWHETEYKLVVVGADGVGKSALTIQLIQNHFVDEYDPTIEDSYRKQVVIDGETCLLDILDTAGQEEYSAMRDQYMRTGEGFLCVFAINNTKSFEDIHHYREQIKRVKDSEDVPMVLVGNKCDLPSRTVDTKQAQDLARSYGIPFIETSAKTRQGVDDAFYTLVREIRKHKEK
Assay Remarks: SOS-catalyzed nucleotide exchange assay (Procedure A, TR-FRET), KRAS-G12D
Format: biochemical
Experimental Setup: nucleotide exchange, read-out: KRAS G12D GNE IC50
Field: IC50. Provide a value for each of the compounds that follow.
Numeric answer only, unit nM assumed.

Identify measured IC50 corresponding to Cc1cc2[nH]ncc2c(-c2nccn3c2cc2nc(OC[C@]4(CN(C)C)CC4(F)F)nc(N4CCOC[C@@](C)(O)C4)c23)c1C1CC1
48.7

Write down IC50 measured for item Cc1cc2[nH]ncc2c(-c2nccc3c2sc2nc(OC[C@@]45CCCN4C[C@H](F)C5)nc(N4CCOCC(O)(CF)C4)c23)c1C(F)(F)F (stereo partly drawn)
97.5

Report IC50 for Cc1cc2[nH]ncc2c(-c2nccc3c4c(N5CCC[C@@](C)(O)C5)nc(OC[C@]5(CN(C)C)CC5(F)F)nc4n(C)c23)c1C(F)(F)F
98.1
